The reported numbers originate from patent US20180044434A1.

# tgt: T1, full-length recombinant mouse PAD4 (mouse, UniProt Q9Z183 1-666)
# T1 construct: mature; Full-length recombinant
# experimentNotes: ELISA, coated mouse PAD4; antibody 1 ug/mL
Reported OD 490/630 nm values for the following binders.

binder: E9 (antibody, V domains shown, Chicken variable regions in a mouse chimeric antibody (IgG1); also called anti-PAD4 antibody E9) VH: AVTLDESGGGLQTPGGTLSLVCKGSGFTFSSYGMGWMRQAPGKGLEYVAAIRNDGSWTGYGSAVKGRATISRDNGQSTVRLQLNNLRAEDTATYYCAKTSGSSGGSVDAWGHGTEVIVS VL: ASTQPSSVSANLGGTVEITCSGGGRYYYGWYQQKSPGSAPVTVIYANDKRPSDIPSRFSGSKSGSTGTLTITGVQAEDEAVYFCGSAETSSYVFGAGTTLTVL
OD 490/630 nm: 2.23

binder: H7 (antibody, V domains shown, Chicken variable regions in a mouse chimeric antibody (IgG1); also called anti-PAD4 antibody H7) VH: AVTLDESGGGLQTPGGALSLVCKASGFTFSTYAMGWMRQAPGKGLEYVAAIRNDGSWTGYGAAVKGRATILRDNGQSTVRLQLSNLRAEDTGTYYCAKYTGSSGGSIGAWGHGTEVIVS VL: ASTQPSSVSANPGGTVEITCSGGSGRYYYGWYQQKSPGSAPVTVIYSSTHRPSNIPSRFSGSKSGSTATLTITGVQAEDEAVYFCGTADSSSYVFGAGTTLTVL
OD 490/630 nm: 2.3

binder: G9 (antibody, V domains shown, Chicken variable regions in a mouse chimeric antibody (IgG1); also called anti-PAD4 antibody G9) VH: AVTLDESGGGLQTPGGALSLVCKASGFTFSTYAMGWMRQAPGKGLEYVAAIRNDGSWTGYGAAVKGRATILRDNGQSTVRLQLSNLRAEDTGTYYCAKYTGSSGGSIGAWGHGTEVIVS VL: AVTQPASVSANLGGTVEITCSGGGRYYYGWYQQKSPGSAPVTVIYANDKRPSDIPSRFSGSKSGSTGTLTITGVQAEDEAVYFCGSAETSSYVFGAGTTLTVL
OD 490/630 nm: 2.3
